Target sequence: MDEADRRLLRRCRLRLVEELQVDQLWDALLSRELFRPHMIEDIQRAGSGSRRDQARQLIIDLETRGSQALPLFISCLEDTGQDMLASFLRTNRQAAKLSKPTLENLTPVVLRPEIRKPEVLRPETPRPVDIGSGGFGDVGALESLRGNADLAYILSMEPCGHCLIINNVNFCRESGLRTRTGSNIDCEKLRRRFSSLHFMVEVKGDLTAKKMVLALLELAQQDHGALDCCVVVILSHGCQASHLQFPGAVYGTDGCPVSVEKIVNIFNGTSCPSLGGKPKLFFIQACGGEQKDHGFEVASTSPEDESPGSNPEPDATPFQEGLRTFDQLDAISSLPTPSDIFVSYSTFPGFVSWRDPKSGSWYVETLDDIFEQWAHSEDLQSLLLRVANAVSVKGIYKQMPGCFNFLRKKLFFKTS
assay-endpoint: IC50 (nM)
Report the value in nM with no unit label.

-- ask Look up IC50: CC(C)[C@H](NC(=O)OCc1ccc(Cl)cc1Cl)C(=O)NC(CC(=O)O)C(=O)CF (stereo partly specified)
-- reply 9

----------
tested-target: Caspase-3 (Homo sapiens)
Sequence (P42574 whole entry): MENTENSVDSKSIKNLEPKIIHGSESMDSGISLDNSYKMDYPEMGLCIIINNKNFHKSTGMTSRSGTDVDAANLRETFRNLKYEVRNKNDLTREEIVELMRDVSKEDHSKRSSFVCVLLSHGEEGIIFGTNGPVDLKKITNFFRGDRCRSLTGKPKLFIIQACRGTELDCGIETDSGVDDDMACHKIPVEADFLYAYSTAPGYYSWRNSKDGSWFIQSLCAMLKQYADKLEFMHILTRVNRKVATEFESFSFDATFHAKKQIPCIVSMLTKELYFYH
protocol-summary: Inhibitory activity against human recombinant caspase-3
assay-endpoint: IC50 (nM)
Quick reminder: number only, in nM, skip the unit.

-- ask Requested read-out: IC50. Entry: CC(C)[C@H](NC(=O)OCc1ccc(Cl)cc1Cl)C(=O)NC(CC(=O)O)C(=O)CF (stereo partly specified)
-- reply 25

----------
protocol-summary: Inhibition concentration required against caspase-1
assay-endpoint: IC50 (nM)
Quick note: give the figure in nM, leave out the unit.

-- ask # query: IC50 of entry CC(C)[C@H](NC(=O)OCc1ccc(Cl)cc1Cl)C(=O)NC(CC(=O)O)C(=O)CF (stereo partly specified)
-- reply 26

Data provenance is ChEMBL document CHEMBL1137919.
